Entry source: PubChem BioAssay (Tox21)

measurementDescription: qHTS assay to test for compound auto fluorescence at 535 nm (green) in HepG2 cell free culture (AID 720686)
conditionDescription: Cell-free medium, green autofluorescence 485/535 nm; series mostly up to 46 µM
Activity calls are given as the source filed them. The call rests on the fitted dose curve; in most records, active means well fitted curve in the direction sought with a large enough effect in the repeat runs; inconclusive means weak or mixed curves; inactive means flat fitted curve, though single readings scatter. Positions of bridges follow the written chain, without caps; N, C: chain ends. Non-standard residues stand in square brackets, D forms with d. Residues, ends and D or L forms follow the SMILES beside them. ξ: configuration not given here. *: point of attachment. d(aThr) = C[C@@H](O)[C@@H](N)C(=O)O; ξThr(3R) = C[C@@H](O)C(N)C(=O)O; X3 = CC[C@@H](C)CCCCC(=O)*; dDab = NCC[C@@H](N)C(=O)O
Log the outcome using a class from true (1) for active, false (0) for inactive

>  <molecule>
CC(C)(C)NC[C@H](O)COc1ccccc1C1CCCC1

>  <qualitativeLabel>
false (0)

$$$$
>  <molecule>
CCCC1C(=O)N2C(N(C)C)=Nc3ccc(C)cc3N2C1=O (configuration not stated)

>  <qualitativeLabel>
false (0)

$$$$
>  <molecule>
COc1ccc2c(c1)N(C[C@H](C)CN(C)C)c1ccccc1S2

>  <qualitativeLabel>
false (0)

$$$$
>  <molecule>
CCN(CC)CCC(=O)N1c2ccccc2Sc2ccc(Cl)cc21

>  <qualitativeLabel>
false (0)

$$$$
>  <molecule>
OC(CN1CCCCC1)c1cc(-c2ccccc2)on1 (configuration not stated)

>  <qualitativeLabel>
false (0)

$$$$

Q: For "CC(=O)N[C@@H](CC(=O)N[C@@H](CCC(=O)O)C(=O)O)C(=O)O" , which call appears in the assay record?
Ans: false (0)

Q: For "O=C(O)c1cc2ccccc2c(Cc2c(O)c(C(=O)O)cc3ccccc23)c1O" , which call appears in the assay record?
Ans: false (0)

Q: For CC1(O)CCC(C(C)(C)O)CC1 (configuration not stated) , which call appears in the assay record?
Ans: false (0)

Q: For "CCCCCCC(=O)O[C@H]1CC[C@H]2[C@@H]3CCc4cc(O)ccc4[C@H]3CC[C@]12C" , which call appears in the assay record?
Ans: false (0)

Q: For "Cc1cc2nc3c(=O)[nH]c(=O)nc-3n(C[C@H](O)[C@H](O)[C@H](O)COP(=O)(O)OP(=O)(O)OC[C@H]3O[C@@H](n4cnc5c(N)ncnc54)[C@H](O)[C@@H]3O)c2cc1C" , which call appears in the assay record?
Ans: true (1)

Q: For NC(=O)OCC(O)COc1ccc(Cl)cc1 (configuration not stated) , which call appears in the assay record?
Ans: false (0)

Q: For "CCCCC[C@H](O)/C=C/[C@H]1[C@H](O)CC(=O)[C@@H]1CCCCCCC(=O)O" , which call appears in the assay record?
Ans: false (0)

Q: For "C=C1CC[C@H](O)CC1=C/C=C1\CCC[C@]2(C)[C@@H]([C@H](C)CC[C@@H](O)C(C)(C)O)CC[C@@H]12" , which call appears in the assay record?
Ans: false (0)

Q: For "CC1=C(/C=C/C(C)=C/C=C/C(C)=C/C=C/C=C(C)/C=C/C=C(C)/C=C/C2=C(C)C(=O)CCC2(C)C)C(C)(C)CCC1=O" , which call appears in the assay record?
Ans: false (0)

Q: For "c1cnc2cc3c(cc2n1)[C@@H]1CNC[C@H]3C1" , which call appears in the assay record?
Ans: false (0)

Q: For CC[C@@H](C)CCCCC(=O)N[C@H](CCN)C(=O)N[C@@H](C(=O)N[C@H](CCN)C(=O)N[C@@H]1CCNC(=O)C([C@@H](C)O)NC(=O)[C@@H](CCN)NC(=O)[C@@H](CCN)NC(=O)[C@@H](CC(C)C)NC(=O)[C@@H](Cc2ccccc2)NC(=O)[C@@H](CCN)NC1=O)[C@@H](C)O (stereo partly drawn) (X3-[dDab][d(aThr)][dDab][dDab][dDab][dF][dL][dDab][dDab][ξThr(3R)]; lactam 4-C) , which call appears in the assay record?
Ans: false (0)

Q: For "CCN(CC)c1ccc(C(=C2C=CC(=[N+](CC)CC)C=C2)c2ccccc2)cc1" , which call appears in the assay record?
Ans: false (0)
